Data provenance is patent US8974823B2.

Experiment: in vitro dissolution test of Drug 4 compositions in PBS
Assay type: physicochemical
Details: Drug 4, initial 90 minutes, Table 12
Measured Quantity: AUC90

I'd like to know its AUC90. The molecule in question is CCOC(=O)N1c2ccc(C(F)(F)F)cc2[C@@H](N(Cc2cc(C(F)(F)F)cc(C(F)(F)F)c2)C(=O)OC)C[C@H]1CC [Control C6, Torcetrapib] < 1470 ng·h/mL

---

Test: in vivo test of oral powder for constitution in fasted male beagle dogs (plasma Drug 4)
Settings: dog, oral gavage OPC, 90 mgA Drug 4
Measured Quantity: Cmax

Cmax for CCOC(=O)N1c2ccc(C(F)(F)F)cc2[C@@H](N(Cc2cc(C(F)(F)F)cc(C(F)(F)F)c2)C(=O)OC)C[C@H]1CC [Control C7, Torcetrapib] ? < 100 ng/mL
